tested on: genotype 1b (Con-1) HCV replicon; assay: HCV replicon luciferase assay, genotype 1b (Con-1); type: cell-based; settings: genotype 1b HCV replicon, Huh-7 cells, Renilla luciferase, 3 days; read-out: EC50 (uM) 1b
quantity_measured: EC50 (µM)
Quick note: give the figure in µM, leave out the unit.

Sample CNC(=O)c1c(-c2ccc(F)cc2)oc2nc(CCC(F)(F)F)c(-c3cccc(C(=O)NC(C)(C#N)C4CC4)c3)cc12 (stereo not shown) [Compound 11007] — what was its EC50?
0.0027
